test_name: Pharmacokinetics after IV and oral dose, monkeys
Type: in vivo
condition_details: cynomolgus monkey, plasma, male, single oral dose 5 mg base/kg
readout_name: Cmax (ng/mL)
Give bare numbers, in ng/mL.

Consider the compound COc1ccc(-c2c(-c3ccc(C#N)c(F)c3)nc(N3CCC(N)CC3)n(C)c2=O)cc1F [Compound A] . State its measured Cmax.
187

---

test_name: in vivo
condition_details: both, Beagle, dog, po, Cmax
readout_name: Cmax (ng/mL)
Answers are plain numbers, in ng/mL.

Read off the recorded Cmax for "COc1ccc(-c2c(-c3ccc(C#N)c(F)c3)nc(N3CCC(N)CC3)n(C)c2=O)cc1F"
5.79

---

test_name: in vivo
condition_details: both, Beagle, dog, po, 0.25 mg/kg, combined Day 15 mean Cmax
readout_name: Cmax (ng/mL)
Answers are plain numbers, in ng/mL.

Answer with reported Cmax of "COc1ccc(-c2c(-c3ccc(C#N)c(F)c3)nc(N3CCC(N)CC3)n(C)c2=O)cc1F"
11

---

target_or_test_system: hERG potassium channel (Homo sapiens (Human), UniProt Q12809)
Sequence (Q12809 whole entry): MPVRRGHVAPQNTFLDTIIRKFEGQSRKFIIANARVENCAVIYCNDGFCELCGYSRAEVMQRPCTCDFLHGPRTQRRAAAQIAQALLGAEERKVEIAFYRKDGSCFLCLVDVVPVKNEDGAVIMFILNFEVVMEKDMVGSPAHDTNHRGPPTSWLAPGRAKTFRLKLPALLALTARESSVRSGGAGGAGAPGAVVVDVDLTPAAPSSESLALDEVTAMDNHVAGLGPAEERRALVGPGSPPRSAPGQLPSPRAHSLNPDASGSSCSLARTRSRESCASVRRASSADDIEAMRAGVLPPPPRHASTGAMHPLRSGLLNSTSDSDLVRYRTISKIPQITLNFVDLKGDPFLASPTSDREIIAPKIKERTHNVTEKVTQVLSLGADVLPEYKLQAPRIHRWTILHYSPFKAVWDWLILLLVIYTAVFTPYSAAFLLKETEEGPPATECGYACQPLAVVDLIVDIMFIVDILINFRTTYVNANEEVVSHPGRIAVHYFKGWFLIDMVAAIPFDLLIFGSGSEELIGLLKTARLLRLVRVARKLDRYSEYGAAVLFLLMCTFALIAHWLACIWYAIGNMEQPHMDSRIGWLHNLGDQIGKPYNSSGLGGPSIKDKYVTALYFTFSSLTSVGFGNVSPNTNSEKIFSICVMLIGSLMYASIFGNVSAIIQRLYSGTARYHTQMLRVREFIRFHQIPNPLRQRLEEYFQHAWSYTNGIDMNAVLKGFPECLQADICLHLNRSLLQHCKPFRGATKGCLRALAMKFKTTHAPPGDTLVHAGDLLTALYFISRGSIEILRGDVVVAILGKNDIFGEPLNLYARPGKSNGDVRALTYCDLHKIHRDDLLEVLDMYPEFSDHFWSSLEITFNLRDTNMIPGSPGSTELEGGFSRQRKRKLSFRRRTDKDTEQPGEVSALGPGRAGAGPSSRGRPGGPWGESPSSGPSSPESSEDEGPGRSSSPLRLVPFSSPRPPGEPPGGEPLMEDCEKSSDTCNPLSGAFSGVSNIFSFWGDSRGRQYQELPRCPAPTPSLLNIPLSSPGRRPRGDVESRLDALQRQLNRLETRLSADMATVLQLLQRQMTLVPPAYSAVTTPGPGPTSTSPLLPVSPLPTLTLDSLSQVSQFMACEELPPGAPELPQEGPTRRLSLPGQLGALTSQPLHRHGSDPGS
test_name: in vitro
condition_details: HEK293 cells stably expressing hERG channels
readout_name: inhibition at 1 µM (%)
Answers are plain numbers, in %.

Answer with the recorded inhibition at 1 µM of COc1ccc(-c2c(-c3ccc(C#N)c(F)c3)nc(N3CCC(N)CC3)n(C)c2=O)cc1F [Compound A] only.
17.8

---

test_name: Pharmacokinetics after IV and oral dose, dogs
Format: in vivo, Beagle dogs
condition_details: Beagle, plasma; dog, male, single oral dose 1 mg base/kg
readout_name: Cmax (ng/mL)
Numbers only, in ng/mL.

Please list Cmax recorded for the compound COc1ccc(-c2c(-c3ccc(C#N)c(F)c3)nc(N3CCC(N)CC3)n(C)c2=O)cc1F [Compound A]
69

---

test_name: Pharmacokinetics after IV and oral dose, rats
Format: in vivo, Sprague Dawley rats
condition_details: Sprague Dawley, plasma; rat, female, single oral dose 15 mg base/kg
readout_name: Tmax (h)
Numbers only, in h.

Please give the documented Tmax of "COc1ccc(-c2c(-c3ccc(C#N)c(F)c3)nc(N3CCC(N)CC3)n(C)c2=O)cc1F"
2

---

test_name: Pharmacokinetics after IV and oral dose, monkeys
Type: in vivo
condition_details: cynomolgus monkey, plasma, male, single IV dose 1 mg, read-out: t1/2, z (converted)
readout_name: half-life (min)
Numbers only, in min.

Could you please provide reported half-life for "COc1ccc(-c2c(-c3ccc(C#N)c(F)c3)nc(N3CCC(N)CC3)n(C)c2=O)cc1F" ? Thanks!
720

---

test_name: Pharmacokinetics after IV and oral dose, mice
Format: in vivo, CD-1 mice
condition_details: CD-1, Sprague Dawley, Beagle, mouse, plasma; oral, across mice, rats, dogs, monkeys; read-out: median tmax
readout_name: Tmax

Annotate the compound "COc1ccc(-c2c(-c3ccc(C#N)c(F)c3)nc(N3CCC(N)CC3)n(C)c2=O)cc1F" with its measured Tmax.
0.5 to 6 h

---

test_name: in vivo
condition_details: female, Crl:CD1(ICR), mouse, plasma, po, 15 mg/kg
readout_name: Cmax (ng/mL)
One number for each entry, in ng/mL.

For the compound COc1ccc(-c2c(-c3ccc(C#N)c(F)c3)nc(N3CCC(N)CC3)n(C)c2=O)cc1F [Compound A] , give its reported Cmax.
850

---

test_name: Pharmacokinetics after IV and oral dose, dogs
Type: in vivo, Beagle dogs
condition_details: Beagle, plasma; dog, male, single oral dose 6 mg base/kg
readout_name: Cmax (ng/mL)
One number for each entry, in ng/mL.

Return reported Cmax. Input compound: COc1ccc(-c2c(-c3ccc(C#N)c(F)c3)nc(N3CCC(N)CC3)n(C)c2=O)cc1F [Compound A]
627

---

test_name: Hemodynamic and ECG parameters in anesthetized guinea pigs
Assay type: in vivo, Dunkin Hartley guinea pigs
condition_details: male, Dunkin Hartley, guinea pig, plasma; 10 mg base/kg IV, 10 minutes; read-out: mean plasma concentration at end of infusion
readout_name: concentration at 10 min
Form field: result (number plus unit)

Identify concentration at 10 min associated with the compound "COc1ccc(-c2c(-c3ccc(C#N)c(F)c3)nc(N3CCC(N)CC3)n(C)c2=O)cc1F"
2360 ng/mL

---

test_name: Pharmacokinetics after IV and oral dose, mice
Assay type: in vivo, CD-1 mice
condition_details: CD-1 (mice), Sprague Dawley (rats), mouse, plasma; IV, rodents (mice, rats); read-out: half-life
readout_name: half-life

Check the records and state half-life for COc1ccc(-c2c(-c3ccc(C#N)c(F)c3)nc(N3CCC(N)CC3)n(C)c2=O)cc1F [Compound A]
120 to 240 min

---

target_or_test_system: hERG potassium channel (Homo sapiens (Human), UniProt Q12809)
test_name: in vitro
condition_details: HEK293 cells stably expressing hERG channels
readout_name: inhibition at 0.3 µM (%)
Give bare numbers, in %.

Enter recorded inhibition at 0.3 µM with hERG potassium channel (Homo sapiens (Human), UniProt Q12809) for "COc1ccc(-c2c(-c3ccc(C#N)c(F)c3)nc(N3CCC(N)CC3)n(C)c2=O)cc1F" here.
5.9

---

test_name: Pharmacokinetics after IV and oral dose, rats
Format: in vivo, Sprague Dawley rats
condition_details: Sprague Dawley, plasma; rat, female, single IV dose 5 mg
readout_name: AUC(0-t)
Answer as a quantity: numeral, then unit.

Report measured AUC(0-t); entry is "COc1ccc(-c2c(-c3ccc(C#N)c(F)c3)nc(N3CCC(N)CC3)n(C)c2=O)cc1F"
680 ng·h/mL

---

test_name: Pharmacokinetics after IV and oral dose, rats
Type: in vivo, Sprague Dawley rats
condition_details: Sprague Dawley, plasma; rat, female, single IV dose 5 mg; read-out: t1/2, z (converted)
readout_name: half-life (h)
Numbers only, in h.

State, in one line, measured half-life of COc1ccc(-c2c(-c3ccc(C#N)c(F)c3)nc(N3CCC(N)CC3)n(C)c2=O)cc1F [Compound A]
3.6

---

test_name: Pharmacokinetics after IV and oral dose, rats
Format: in vivo, Sprague Dawley rats
condition_details: Sprague Dawley, plasma; rat, female, single oral dose 5 mg base/kg
readout_name: bioavailability

Output bioavailability of COc1ccc(-c2c(-c3ccc(C#N)c(F)c3)nc(N3CCC(N)CC3)n(C)c2=O)cc1F [Compound A]
33%

---

target_or_test_system: human LSD-1 (Homo sapiens (Human))
test_name: In vitro enzyme inhibition assay LSD-1 (TR-FRET)
Type: biochemical
condition_details: TR-FRET, H3K4me1-biotin labeled peptide
readout_name: IC50

[[record]]
compound_structure = "COc1ccc(-c2c(-c3ccc(C#N)c(F)c3)nc(N3CCC[C@H](N)C3)n(C)c2=O)cc1F"
value_reported = "< 100 nM"


Please report IC50 for every entry that follows.
1. COc1ccc(-c2c(-c3ccccc3C#N)nc(N3CCC(N)CC3)n(C)c2=O)cc1F
2. CNC1CCN(c2nc(-c3ccc(C#N)c(F)c3)c(-c3ccc(C)nc3)c(=O)n2C)CC1
3. CN(C)c1ccc(-c2c(-c3ccc(C#N)c(F)c3)nc(N3CCC(N)CC3)n(C)c2=O)cn1
4. Cn1c(N2CCC(N)CC2)nc(-c2ccc(C#N)c(F)c2)c(-c2cccc(F)c2)c1=O
5. COc1ccc(-c2c(-c3ccc(C#N)c(F)c3)nc(N3CCC4(CCNC4)CC3)n(C)c2=O)cc1F

1: > 10000 nM; 2: < 100 nM; 3: < 100 nM; 4: < 100 nM; 5: < 100 nM

Return reported IC50 values for all items listed beneath this line.
1. Cn1c(N2CCC(N)CC2)nc(-c2ccc(C#N)cc2)c(-c2cnn(CC(F)(F)F)c2)c1=O
2. CNC1CCN(c2nc(-c3ccc(C#N)c(F)c3)c(-c3ccc(OC)c(F)c3)c(=O)n2C)CC1

< 100 nM
< 100 nM

---

target_or_test_system: human LSD-1 (Homo sapiens (Human))
test_name: In vitro enzyme inhibition assay LSD-1 (TR-FRET)
Type: biochemical
Text: This assay determines the ability of a test compound to inhibit LSD-1 demethylase activity. The enzymatic assay of LSD-1 activity is based on Time Resolved-Fluorescence Resonance Energy Transfer (TR-FRET) detection.
readout_name: IC50

Please look at this compound and report its IC50: "COc1ccc(-c2c(-c3ccc(C#N)c(F)c3)nc(N(C)C3CCNCC3)n(C)c2=O)cc1"
< 100 nM

---

test_name: in vivo
condition_details: male, Crl:CD1(ICR), mouse, plasma, po, 15 mg/kg
readout_name: AUC(0-t) (ng·h/mL)
One number for each entry, in ng·h/mL.

Fill in AUC(0-t) for record "COc1ccc(-c2c(-c3ccc(C#N)c(F)c3)nc(N3CCC(N)CC3)n(C)c2=O)cc1F"
7960

---

test_name: in vivo
condition_details: both, Beagle, dog, po, AUC0-96
readout_name: AUC(0-t) (ng·h/mL)
Give bare numbers, in ng·h/mL.

State, in one line, measured AUC(0-t) of COc1ccc(-c2c(-c3ccc(C#N)c(F)c3)nc(N3CCC(N)CC3)n(C)c2=O)cc1F [Compound A]
120
